Values compiled from paper PMC9920246.

biological target: 26S proteasome (Homo sapiens, UniProt P28074); experiment: Proteasome inhibitory activity (Suc-LLVY-amc) in RPMI 8226 cell lysate; format: biochemical; details: 26S proteasome in RPMI 8226 cell lysate, 30 min preincubation, Suc-LLVY-amc 100 µM, mean ± SD, n = 3; read-out: IC50 Value PI Activity
Sequence (P28074 60-263): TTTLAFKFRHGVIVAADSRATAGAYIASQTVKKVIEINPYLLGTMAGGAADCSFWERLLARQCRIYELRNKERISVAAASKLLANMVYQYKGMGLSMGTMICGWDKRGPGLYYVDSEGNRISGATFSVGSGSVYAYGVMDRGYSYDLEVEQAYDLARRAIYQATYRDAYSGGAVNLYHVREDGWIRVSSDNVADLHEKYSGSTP
pIC50: −log10 of the molar value.
Metric: pIC50

# Molecule, Limit Sign, Quantitative Readout
data = [
    ("CC(C)C[C@H](NC(=O)[C@@H](Cc1ccccc1)NC(=O)c1ccc(C(=O)NCc2ccc(C(=O)Nc3ccccc3N)cc2)cc1)B1OC2CC3CC(C3(C)C)[C@@]2(C)O1 (some centres unmarked)", "<", 7.30),
    ("CC(C)C[C@H](NC(=O)[C@@H](Cc1ccccc1)NC(=O)Cc1ccc(C(=O)Nc2ccc(F)cc2N)cc1)B1OC2CC3CC(C3(C)C)[C@@]2(C)O1 (some centres unmarked)", "=", 8.14),
    ("CC(C)C[C@H](NC(=O)[C@@H](Cc1ccccc1)NC(=O)c1cnc(C(=O)NCc2ccc(C(=O)Nc3ccccc3N)cc2)cn1)B1OC2CC3CC(C3(C)C)[C@@]2(C)O1 (some centres unmarked)", "=", 7.83),
    ("CC(C)C[C@H](NC(=O)[C@@H](Cc1ccccc1)NC(=O)Cc1ccc(C(=O)Nc2ccccc2N)cc1)B1OC2CC3CC(C3(C)C)[C@@]2(C)O1 (some centres unmarked)", "<", 7.30),
    ("CC(C)C[C@H](NC(=O)[C@@H](Cc1ccccc1)NC(=O)c1cnc(C(=O)Nc2ccccc2N)cn1)B1OC2CC3CC(C3(C)C)[C@]2(C)O1 (some centres unmarked)", "=", 7.57),
]
